Molecular target: AchR (Homo sapiens, UniProt P02708)
Sequence (P02708 21-457): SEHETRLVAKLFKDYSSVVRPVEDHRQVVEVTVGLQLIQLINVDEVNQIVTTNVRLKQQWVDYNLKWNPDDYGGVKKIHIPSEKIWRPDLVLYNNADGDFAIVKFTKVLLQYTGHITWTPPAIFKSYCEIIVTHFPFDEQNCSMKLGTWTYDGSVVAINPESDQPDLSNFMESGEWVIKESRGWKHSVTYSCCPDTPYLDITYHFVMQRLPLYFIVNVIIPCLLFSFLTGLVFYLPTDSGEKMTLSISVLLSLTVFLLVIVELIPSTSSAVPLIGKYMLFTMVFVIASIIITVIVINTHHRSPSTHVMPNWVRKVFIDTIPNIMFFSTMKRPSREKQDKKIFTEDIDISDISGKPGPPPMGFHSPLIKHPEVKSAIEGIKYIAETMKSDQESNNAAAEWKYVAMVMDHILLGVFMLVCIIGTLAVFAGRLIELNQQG
Assay: ELISA of screened peptide phages on AchR versus streptavidin (OD450)
Format: binding
Settings: phage ELISA, absorbance at 450 nm, 5 μg/ml AchR; 4th and 5th round biopanning phages
OBSERVATION_TYPE: OD

[
  {
    "SEQUENCE_DATA": "KEKKLVWK [Peptide L1-174]",
    "ENDPOINT_RESULT": 0.596
  },
  {
    "SEQUENCE_DATA": "KWKRFSQR [Peptide L1-197]",
    "ENDPOINT_RESULT": 0.631
  },
  {
    "SEQUENCE_DATA": "KIKKAARR [Peptide L1-35]",
    "ENDPOINT_RESULT": 0.556
  },
  {
    "SEQUENCE_DATA": "KWRREGFK [Peptide L1-12]",
    "ENDPOINT_RESULT": 0.691
  },
  {
    "SEQUENCE_DATA": "KQKKTGFR [Peptide L1-55]",
    "ENDPOINT_RESULT": 0.585
  },
  {
    "SEQUENCE_DATA": "RDRKFVQK [Peptide L1-154]",
    "ENDPOINT_RESULT": 0.633
  },
  {
    "SEQUENCE_DATA": "KWRRNGQR [Peptide L1-98]",
    "ENDPOINT_RESULT": 0.54
  },
  {
    "SEQUENCE_DATA": "KLRKQKLR [Peptide L1-43]",
    "ENDPOINT_RESULT": 0.601
  },
  {
    "SEQUENCE_DATA": "KFRKHVCK [Peptide L1-116]",
    "ENDPOINT_RESULT": 0.492
  },
  {
    "SEQUENCE_DATA": "RDRKNPVR [Peptide L1-124]",
    "ENDPOINT_RESULT": 0.428
  },
  {
    "SEQUENCE_DATA": "RWKRSEQR [Peptide L1-32]",
    "ENDPOINT_RESULT": 0.607
  },
  {
    "SEQUENCE_DATA": "RDRKIHDK [Peptide L1-23]",
    "ENDPOINT_RESULT": 0.712
  },
  {
    "SEQUENCE_DATA": "KNRRADCR [Peptide L1-140]",
    "ENDPOINT_RESULT": 0.381
  },
  {
    "SEQUENCE_DATA": "KWRRAFGR [Peptide L1-87]",
    "ENDPOINT_RESULT": 0.538
  },
  {
    "SEQUENCE_DATA": "GGGRKKRRQRRRGG [Peptide L3-201, reference compound]",
    "ENDPOINT_RESULT": 0.315
  },
  {
    "SEQUENCE_DATA": "RQRRNDMK [Peptide L1-9]",
    "ENDPOINT_RESULT": 0.639
  },
  {
    "SEQUENCE_DATA": "KKRKSLLR [Peptide L1-159]",
    "ENDPOINT_RESULT": 0.593
  },
  {
    "SEQUENCE_DATA": "RARKDAFK [Peptide L1-11]",
    "ENDPOINT_RESULT": 0.703
  },
  {
    "SEQUENCE_DATA": "KWKKMMER [Peptide L1-81]",
    "ENDPOINT_RESULT": 0.63
  },
  {
    "SEQUENCE_DATA": "KTRRVDLR [Peptide L1-38]",
    "ENDPOINT_RESULT": 0.514
  },
  {
    "SEQUENCE_DATA": "RLKRAPGR [Peptide L1-33]",
    "ENDPOINT_RESULT": 0.529
  },
  {
    "SEQUENCE_DATA": "REKRYMAR [Peptide L1-91]",
    "ENDPOINT_RESULT": 0.826
  },
  {
    "SEQUENCE_DATA": "KVKRVWGR [Peptide L1-163]",
    "ENDPOINT_RESULT": 0.618
  },
  {
    "SEQUENCE_DATA": "RGKRHWHR [Peptide L1-179]",
    "ENDPOINT_RESULT": 0.633
  },
  {
    "SEQUENCE_DATA": "KCKKDNDK [Peptide L1-184]",
    "ENDPOINT_RESULT": 0.593
  },
  {
    "SEQUENCE_DATA": "KGKRDSNK [Peptide L1-51]",
    "ENDPOINT_RESULT": 0.66
  },
  {
    "SEQUENCE_DATA": "KFKKSAPR [Peptide L1-136]",
    "ENDPOINT_RESULT": 0.392
  },
  {
    "SEQUENCE_DATA": "KERKLWWK [Peptide L1-171]",
    "ENDPOINT_RESULT": 0.583
  },
  {
    "SEQUENCE_DATA": "KFKKHGVK [Peptide L1-21]",
    "ENDPOINT_RESULT": 0.65
  },
  {
    "SEQUENCE_DATA": "KPKKPPAR [Peptide L1-84]",
    "ENDPOINT_RESULT": 0.576
  }
]
